Target: mGluR5 receptor (Sus scrofa)
Construct: 450 μg of protein from brain homogenate with 5 nM ^3[H]-MPEP; from tissue; host or cells: pig brain halves without medulla, cerebellum and pons
Assay: [3H]-MPEP mGluR5 receptor binding assay (pig brain homogenate)
Conditions: 10 μM compound, 5 nM [3H]-MPEP, read-out: % Inhibition of mGluR5 Receptor (pig) [^3H]-MPEP Bond at 10 μM
Structures can show the parent of a compound that is named as a salt.
assay readout: inhibition at 10 µM (%)

Known results for molecules:
molecule: Cc1nc(NC2CC2)c2cc(-c3ccc(F)c(CN(C(=O)c4ccc(C(F)(F)F)cc4F)C4CC4)c3)ccc2n1
assay readout: inhibition at 10 µM
experimental result: 61
--
molecule: O=S1(=O)CCCN1Cc1cccc(-c2ccc3ncnc(NC4CC4)c3c2)c1 [Example 206, hydrochloride]
assay readout: inhibition at 10 µM
experimental result: 34
--
molecule: O=C(c1cccnc1)N(Cc1cccc(-c2ccc3ncnc(NCCc4ccccc4)c3c2)c1)C1CC1
assay readout: inhibition at 10 µM
experimental result: 35

a: Cc1cccc(CNc2ncnc3ccc(-c4cccc(CN(C(=O)c5cc(C)nn5C)C5CC5)c4)cc23)c1
b: CCCN(Cc1cccc(-c2ccc3ncnc(Nc4ccccc4)c3c2)c1)C(=O)c1ccncc1
For the pair a and b , which member has the lower inhibition at 10 µM number? Could you answer with the label of the item you picked? a
(a: 34%, b: 74%)

###

Biological target: mGluR5 receptor (Sus scrofa, UniProt I3LUI7)
Construct: 450 μg of protein from brain homogenate with 5 nM ^3[H]-MPEP; from tissue; host or cells: pig brain halves without medulla, cerebellum and pons
Sequence (I3LUI7 19-1212): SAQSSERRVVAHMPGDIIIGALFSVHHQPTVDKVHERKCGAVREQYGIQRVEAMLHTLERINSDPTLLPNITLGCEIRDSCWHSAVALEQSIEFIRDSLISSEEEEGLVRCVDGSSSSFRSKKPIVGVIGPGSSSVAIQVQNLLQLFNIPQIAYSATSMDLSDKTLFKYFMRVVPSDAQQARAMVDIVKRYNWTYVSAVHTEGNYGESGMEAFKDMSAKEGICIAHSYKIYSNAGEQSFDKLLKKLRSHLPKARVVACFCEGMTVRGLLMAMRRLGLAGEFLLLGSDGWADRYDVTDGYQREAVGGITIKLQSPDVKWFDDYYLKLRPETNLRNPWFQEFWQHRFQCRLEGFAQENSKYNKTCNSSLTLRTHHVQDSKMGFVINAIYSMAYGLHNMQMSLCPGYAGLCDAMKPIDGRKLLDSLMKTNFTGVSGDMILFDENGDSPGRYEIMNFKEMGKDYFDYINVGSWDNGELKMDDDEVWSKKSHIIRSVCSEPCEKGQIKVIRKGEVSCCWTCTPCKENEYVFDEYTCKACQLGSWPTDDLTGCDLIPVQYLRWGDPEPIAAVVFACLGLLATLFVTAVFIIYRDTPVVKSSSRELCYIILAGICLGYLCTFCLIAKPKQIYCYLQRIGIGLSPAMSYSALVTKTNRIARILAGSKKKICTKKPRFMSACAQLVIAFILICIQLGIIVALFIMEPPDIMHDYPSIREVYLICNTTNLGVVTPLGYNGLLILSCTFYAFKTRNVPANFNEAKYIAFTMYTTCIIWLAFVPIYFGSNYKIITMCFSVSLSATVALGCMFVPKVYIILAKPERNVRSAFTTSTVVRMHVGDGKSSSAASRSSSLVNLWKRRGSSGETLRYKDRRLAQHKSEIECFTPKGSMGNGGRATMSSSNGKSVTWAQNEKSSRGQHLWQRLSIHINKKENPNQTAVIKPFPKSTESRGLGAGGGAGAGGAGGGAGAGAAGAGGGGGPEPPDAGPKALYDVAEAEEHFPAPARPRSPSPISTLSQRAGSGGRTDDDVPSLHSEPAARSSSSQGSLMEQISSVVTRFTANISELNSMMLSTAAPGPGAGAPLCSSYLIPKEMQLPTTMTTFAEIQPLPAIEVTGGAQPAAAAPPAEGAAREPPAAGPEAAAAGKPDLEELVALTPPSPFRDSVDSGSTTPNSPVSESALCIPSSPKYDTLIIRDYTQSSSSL
Assay: [3H]-MPEP mGluR5 receptor binding assay (pig brain homogenate)
Settings: 10 μM compound, 5 nM [3H]-MPEP, read-out: % Inhibition of mGluR5 Receptor (pig) [^3H]-MPEP Bond at 10 μM
assay readout: inhibition at 10 µM (%)

Known results for compounds:
smiles input: Cc1nc(NC2CC2)c2cc(-c3ccc(F)c(CN(C(=O)c4ccccc4C(F)(F)F)C4CC4)c3)ccc2n1
inhibition at 10 µM, %: 93
//
smiles input: CCCN(Cc1cccc(-c2ccc3ncnc(Nc4ccccc4)c3c2)c1)C(=O)c1ccc(OC)cc1
inhibition at 10 µM, %: 75
//
smiles input: Cc1cc2ncnc(NC3CC3)c2cc1-c1cccc(CN(C(=O)c2ccccc2)C2CC2)c1
inhibition at 10 µM, %: 95
//
smiles input: O=C(c1ccc(F)cc1F)N(Cc1cc(-c2ccc3ncnc(NC4CC4)c3c2)ccc1F)C1CC1
inhibition at 10 µM, %: 90
//
smiles input: Cc1cc2ncnc(NC3CC3)c2cc1-c1cccc(CN(C(=O)c2ccccc2C(F)(F)F)C2CC2)c1
inhibition at 10 µM, %: 96
//
smiles input: Cc1cc(C(=O)N(Cc2cccc(-c3ccc4nc(C)nc(NC5CC5)c4c3)c2)C2CC2)n(C)n1
inhibition at 10 µM, %: 32

I: O=C(c1ccccc1C(F)(F)F)N(Cc1cc(-c2ccc3ncnc(NC4CC4)c3c2)ccn1)C1CC1
II: Cc1nc(NC2CC2)c2cc(-c3ccc(F)c(CN(C(=O)c4ccccc4)C4CC4)c3)ccc2n1
III: CN(c1ncnc2ccc(-c3ccc(F)c(CN(C(=O)c4ccco4)C4CC4)c3)cc12)C1CC1
Parameters: sort_field (inhibition at 10 µM), sort_dir (desc). # output: labels, in the requested order III, I, II
(III: 94%, I: 65%, II: 40%)

a: Cc1ccc(C(=O)N(Cc2ccccc2)Cc2cccc(-c3ccc4ncnc(NC(C)C)c4c3)c2)cc1
b: CCCCC(=O)N(Cc1cccc(-c2cc(F)c3ncnc(NC4CC4)c3c2)c1)C1CC1
For the pair a and b , which member has the lower inhibition at 10 µM number? Could you answer with the label of the item you picked? a

1: O=C(c1ccc(C(F)(F)F)cc1F)N(Cc1cc(-c2ccc3ncnc(NC4CC4)c3c2)ccc1F)C1CC1
2: CN(C)CC(=O)N(Cc1cccc(-c2ccc3ncnc(NC4CC4)c3c2)c1)C1CC1
3: Cc1cc2ncnc(NC3CC3)c2cc1-c1cccc(CN(C(=O)c2ccno2)C2CC2)c1
Put these in order: smallest inhibition at 10 µM first, largest last. # output: labels, in the requested order 2, 3, 1

A: CC(=O)N(Cc1cccc(-c2ccc3ncnc(NC4CC4)c3c2)c1)C1CCCC1
B: CC(C)(C)C(=O)N(Cc1cc(-c2ccc3ncnc(NC4CC4)c3c2)ccc1F)C1CC1
C: Cc1cc(CNC2CC2)cc(-c2ccc3ncnc(NC4CC4)c3c2)c1
Parameters: sort_field (inhibition at 10 µM), sort_dir (desc). # output: labels, in the requested order B, A, C
(B: 90%, A: 63%, C: 33%)

A: COCC(=O)N(C)Cc1cc(-c2ccc3ncnc(NCc4ccccc4)c3c2)ccc1F
B: O=C(c1ccc(C(F)(F)F)cc1F)N(Cc1cccc(-c2ccc3ncnc(NC4CC4)c3c2)c1)C1CC1
Just curious, which one has the larger inhibition at 10 µM reading, A or B ? Could you answer with the label of the item you picked? B

1: CCCCNCc1cccc(-c2ccc3ncnc(NC4CC4)c3c2)c1
2: Cc1cc2ncnc(NC3CC3)c2cc1-c1cccc(CN(C(=O)CCc2ccccc2)C2CC2)c1
3: Cc1cccc(CNc2ncnc3ccc(-c4cccc(CN(C(=O)c5cccnc5)C5CC5)c4)cc23)c1
Put these in order: smallest inhibition at 10 µM first, largest last. # output: labels, in the requested order 3, 1, 2
(3: 34%, 1: 50%, 2: 77%)

a: O=C(O)CCC(=O)NCc1cccc(-c2ccc3ncnc(Nc4ccccc4)c3c2)c1
b: O=C(c1c(F)c(F)c(F)c(F)c1F)N(Cc1cc(-c2ccc3ncnc(NC4CC4)c3c2)ccn1)C1CC1
For the pair a and b , which member has the lower inhibition at 10 µM number? Could you answer with the label of the item you picked? a
(a: 57%, b: 93%)

a: CCCN(Cc1cccc(-c2ccc3ncnc(Nc4ccccc4)c3c2)c1)C(=O)c1ccccc1Cl
b: c1cc(CN2CCc3ccccc32)cc(-c2ccc3ncnc(NC4CC4)c3c2)c1
For the pair a and b , which member has the lower inhibition at 10 µM number? Could you answer with the label of the item you picked? a
